Entries annotated with measured IC50
- target.system: purified recombinant human Aggrecanase-1 (rAgg1) (Homo sapiens, UniProt O75173)
- Sequence (O75173 213-837): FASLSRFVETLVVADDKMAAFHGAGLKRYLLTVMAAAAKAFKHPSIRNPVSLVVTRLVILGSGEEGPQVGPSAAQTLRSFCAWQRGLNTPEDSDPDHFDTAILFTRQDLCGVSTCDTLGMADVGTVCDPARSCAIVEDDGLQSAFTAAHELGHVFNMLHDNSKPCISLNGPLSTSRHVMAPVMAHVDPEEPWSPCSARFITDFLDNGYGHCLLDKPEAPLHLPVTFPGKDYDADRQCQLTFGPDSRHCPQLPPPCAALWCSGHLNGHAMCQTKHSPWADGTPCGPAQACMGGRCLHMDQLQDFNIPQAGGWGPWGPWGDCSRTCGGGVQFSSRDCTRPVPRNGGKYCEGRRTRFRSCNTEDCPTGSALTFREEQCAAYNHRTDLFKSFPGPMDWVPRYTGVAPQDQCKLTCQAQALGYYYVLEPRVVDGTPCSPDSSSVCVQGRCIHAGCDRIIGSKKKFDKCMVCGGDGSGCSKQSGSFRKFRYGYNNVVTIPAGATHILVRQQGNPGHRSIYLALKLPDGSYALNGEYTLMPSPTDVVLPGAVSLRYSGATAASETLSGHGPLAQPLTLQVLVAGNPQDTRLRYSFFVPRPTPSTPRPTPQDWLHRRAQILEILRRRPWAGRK
- method: In vitro fluorescence screen for Aggrecanase-1 inhibitors
- Format: biochemical
- setup.conditions: Table 2; read-out: Agg1 IC50

Query: Find the measured IC50: item CC(C)(Cc1ccc(F)cc1)NC(=O)[C@H](CCC(N)=O)NC(=O)c1ccc(-c2ccccc2)cc1 , target or system purified recombinant human Aggrecanase-1 (rAgg1) (Homo sapiens, UniProt O75173).
Result: > 25 µM

Query: Next up: O=C(O)CC[C@H](NC(=O)C1c2ccccc2-c2ccccc21)C(=O)NCc1ccccc1
Result: > 50 µM

Query: Next up: O=C(O)CC[C@H](NC(=O)c1ccc(C#Cc2ccccc2)cc1)C(=O)NCc1ccccc1 [Example 12G]
Result: > 25 µM

Query: Next up: COc1cc(CNC(=O)[C@H](CCC(=O)O)NC(=O)c2ccc(-c3ccc(C)c(F)c3)cc2)cc(OC)c1OC [Example 17R]
Result: 0.073 µM

* * *

- target.system: purified recombinant human Aggrecanase-2 (Ag2t-Phe628-Strep) (Homo sapiens, UniProt Q9UNA0)
- Construct: the form used is denoted as Ag2t-Phe628-Strep (MW=41,737)
- Sequence (Q9UNA0 262-628): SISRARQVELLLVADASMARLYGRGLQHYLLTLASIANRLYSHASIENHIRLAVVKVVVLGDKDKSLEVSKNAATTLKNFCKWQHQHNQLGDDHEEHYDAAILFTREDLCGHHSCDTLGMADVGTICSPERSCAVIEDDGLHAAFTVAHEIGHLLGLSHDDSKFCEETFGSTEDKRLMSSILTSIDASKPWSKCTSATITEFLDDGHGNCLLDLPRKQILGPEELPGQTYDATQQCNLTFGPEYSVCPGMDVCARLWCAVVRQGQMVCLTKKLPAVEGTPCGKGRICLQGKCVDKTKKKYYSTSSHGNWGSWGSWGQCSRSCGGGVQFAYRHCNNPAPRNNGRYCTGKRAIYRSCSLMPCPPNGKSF
- method: In vitro fluorescence screen for Aggrecanase-2 inhibitors
- Format: biochemical
- setup.conditions: Table 3; read-out: Agg 2 IC50
pIC50: −log10 of the molar value.
Please mark condition met if the recorded pIC50 is equal to or greater than 7, and condition not met if it falls below.

INSERT INTO assay_data (molecule, label) VALUES
  ('CC(C)(Cc1ccc(F)cc1)NC(=O)[C@H](CCC(=O)O)NC(=O)c1ccc(-c2ccc(Cl)s2)nc1', 'condition not met'),
  ('COc1cc(OC)cc(OCc2ccc(-c3ccc(C(=O)N[C@@H](CCC(=O)O)C(=O)NCc4cccc(C)c4)cc3)cc2)c1 [Example 15Q]', 'condition not met');

Query: API: above_or_equal(metric=pIC50, cutoff=7) for item CC(C)(Cc1ccccc1)NC(=O)[C@H](CCC(=O)O)NC(=O)c1ccc(-c2ccccc2)nc1
Result: condition not met

Query: Next up: CC(C)(Cc1ccc(Cl)cc1)NC(=O)[C@H](CCC(=O)O)NC(=O)c1ccc(-c2cccc(Cl)c2)cc1
Result: condition not met

Query: Next up: CC(C)(Cc1ccc(Cl)s1)NC(=O)[C@H](CCC(=O)O)NC(=O)c1ccc(-c2ccccc2)cc1
Result: condition met

Query: Next up: COc1cccc(COc2cccc(-c3ccc(C(=O)N[C@@H](CCC(=O)O)C(=O)NCc4cc(OC)c(OC)c(OC)c4)cc3)c2)c1 [Example 15M]
Result: condition not met

Query: Next up: CC(C)(Cc1ccccc1)NC(=O)[C@H](CCC(=O)O)NC(=O)c1sccc1-c1ccccc1
Result: condition not met

Query: Next up: CC(C)(Cc1ccccc1)NC(=O)[C@H](CCC(=O)O)NC(=O)c1ccc(-c2ccc(COc3cc(C(F)(F)F)cc(C(F)(F)F)c3)cc2)cc1 [Example 15O]
Result: condition not met

Query: Next up: CC(C)(Cc1ccc(Cl)s1)NC(=O)[C@H](CCC(=O)O)NC(=O)c1ccc(-c2ccc(F)c(Cl)c2)s1
Result: condition met

Query: Next up: CC(C)(Cc1ccc(F)cc1)NC(=O)[C@H](CCC(=O)O)NC(=O)c1ccc(-c2ccc(Br)s2)cc1
Result: condition met

Query: Next up: CC(C)(Cc1ccc(Cl)cc1)NC(=O)[C@H](CCC(=O)O)NC(=O)c1sccc1-c1ccccc1
Result: condition not met
